Biological target: T1, human MCAM expressed on CHO cells (full length human MCAM gene) (human, UniProt P43121 24-646)
T1 construct: also called hMCAM expressing CHO cells; CD146
T1 chain: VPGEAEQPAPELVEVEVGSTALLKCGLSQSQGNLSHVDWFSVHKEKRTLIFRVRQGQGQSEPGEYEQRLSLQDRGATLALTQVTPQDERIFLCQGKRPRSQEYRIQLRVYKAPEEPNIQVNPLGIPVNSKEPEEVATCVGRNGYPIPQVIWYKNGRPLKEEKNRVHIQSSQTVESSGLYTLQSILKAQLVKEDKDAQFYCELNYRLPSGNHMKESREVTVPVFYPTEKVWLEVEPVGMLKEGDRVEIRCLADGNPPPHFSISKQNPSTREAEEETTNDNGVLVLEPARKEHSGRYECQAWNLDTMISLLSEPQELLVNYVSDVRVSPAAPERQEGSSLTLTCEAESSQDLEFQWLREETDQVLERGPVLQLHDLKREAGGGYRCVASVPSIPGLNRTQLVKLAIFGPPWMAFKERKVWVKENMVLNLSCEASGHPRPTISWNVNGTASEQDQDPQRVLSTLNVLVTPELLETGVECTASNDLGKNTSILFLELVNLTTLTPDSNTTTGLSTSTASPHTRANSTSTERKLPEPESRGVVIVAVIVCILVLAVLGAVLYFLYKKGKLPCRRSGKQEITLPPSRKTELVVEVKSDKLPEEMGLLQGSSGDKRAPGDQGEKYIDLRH
Test: laminin/FACS assay: blocking of recombinant laminin 411 binding to hMCAM expressing CHO cells, relative to rodent 2120, Expt#1
measured.attribute: Fold over rodent (Blocking) (fold)
One number for each entry, in fold.

Answered examples (3):
humanized anti-MCAM antibody h2120_VH5 + h2120_VL3 (antibody, V domains shown, Human IgG1 / human kappa; also called h2120VH5VL3; VH5VL3) VH: QVTLKESGPVLVKPTETLTLTCTVSGFSLTSNAVSWVRQPPGKALEWIAAISSGGTTYYNSAFKSRLTISRDTSKSQVVLTMTNMDPVDTATYYCARRYGYGWYFDFWGQGTLVTVSS VL: DIQMTQSPSSLSASVGDRVTINCKASQNIYNSLAWYQQKPGKAPKVLIFNANSLQTGIPSRFSGSGSGTDFTLTISSLQPEDFATYYCQQFYSGYTFGQGTKLEIK	1.2
humanized anti-MCAM antibody h2120_VH1 + h2120_VL1 (antibody, V domains shown, Human IgG1 / human kappa; also called h2120VH1VL1; Standard VH + standard VL) VH: QVTLKESGPVLVKPTETLTLTCTVSGFSLTSNGVSWVRQPPGKALEWIAAISSGGTTYYNSAFKSRLTISRDTSKSQVVLTMTNMDPVDTATYYCARRYGYGWYFDFWGQGTLVTVSS VL: DIQMTQSPSSLSASVGDRVTITCKASQNIYNSLAWYQQKPGKAPKVLIFNANSLQTGIPSRFSGSGSGTDFTLTISSLQPEDFATYYCQQFYSGYTFGQGTKLEIK	2
humanized anti-MCAM antibody h2120_VH1 + h2120_VL3 (antibody, V domains shown, V regions cloned into vectors containing human CK (VL) or human IgG1 (VH); also called h2120VH1VL3; Standard VH + conservative VL) VH: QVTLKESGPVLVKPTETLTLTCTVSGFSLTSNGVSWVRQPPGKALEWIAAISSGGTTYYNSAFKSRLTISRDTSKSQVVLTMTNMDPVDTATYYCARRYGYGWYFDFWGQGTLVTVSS VL: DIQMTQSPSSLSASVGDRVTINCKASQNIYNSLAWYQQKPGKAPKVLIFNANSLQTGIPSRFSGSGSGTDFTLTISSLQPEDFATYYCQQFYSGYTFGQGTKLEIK	1.7

The measured Fold over rodent (Blocking) associated with humanized anti-MCAM antibody h2120_VH4 + h2120_VL3 (antibody, V domains shown, Human IgG1 / human kappa; also called h2120VH4VL3; N-Q deamidate VH + conservative VL) VH: QVTLKESGPVLVKPTETLTLTCTVSGFSLTSQGVSWVRQPPGKALEWIAAISSGGTTYYNSAFKSRLTISRDTSKSQVVLTMTNMDPVDTATYYCARRYGYGWYFDFWGQGTLVTVSS VL: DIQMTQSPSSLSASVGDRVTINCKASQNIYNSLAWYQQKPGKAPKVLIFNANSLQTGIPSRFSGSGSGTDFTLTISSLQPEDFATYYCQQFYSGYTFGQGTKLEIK reads 3.8
